Assay: NCI Yeast Anticancer Drug Screen. Data for the mec2-1 strain (AID 157)
Details: S. cerevisiae mec2-1 strain, at 5.0 µM (retest, dose inferred, filed as 0.5), hits give high values
Compounds without any hit were thinned out: in the full panel of roughly 79,000, 15% have a hit.
What growth inhibition was measured for each of the following?
Form entry: value (%) — number only.

Request the reported growth inhibition associated with CC1Cc2cc(O)c(O)cc2-c2cc(O)c(O)cc2CC1C (configuration not stated)
-11

Please give the measured growth inhibition for this compound: CN(C)CC(=O)OCC[N+](C)(C)C
-6

Look up growth inhibition for this compound: COc1cccc(C2CC(C)(O)Oc3cc4c(cc32)OCO4)c1 (configuration not stated)
5

Look at this compound and give its reported growth inhibition. Oc1c(Cl)cc(Cl)c(Cc2c(Cl)cc(Cl)c(O)c2Cl)c1Cl
98

Which measured growth inhibition value corresponds to NC(=O)NNC(=O)NNC(N)=O ?
-2

Which growth inhibition is reported for this compound? CN(Cc1cc(Br)cc(Br)c1O)Cc1c[nH]c2ccccc12
12

Suppose we examine the compound [N-]=[N+]=CC(=O)C1(c2ccccc2)OC1c1ccccc1 (configuration not stated) ; what growth inhibition value has been reported?
7

Would you kindly share the measured growth inhibition for CSc1cc(-c2cc3ccccc3o2)oc(=O)c1C#N ?
-1

What value of growth inhibition has been recorded for this entry: [Cu+2].[NH-]c1ccccc1O.[NH-]c1ccccc1[OH2+]
20

Given the entry CCCc1cc2c(cc1CS(=O)(=O)CC)OCO2 , report its measured growth inhibition.
-4

Name the recorded growth inhibition for CCCCCCC(C)S(=O)(=O)c1ccc(C)cc1 (configuration not stated) .
14

Requested field: growth inhibition. Item: O=[N+]([O-])c1ccc2nc(CCl)[nH]c2c1
37

* * *

Assay: NCI Yeast Anticancer Drug Screen. Data for the bub3 strain (AID 167)
Settings: S. cerevisiae bub3 mutant strain, at 50.0 µM
This is part of a sample that, as a whole, favours compounds with a hit. Of some 79,000 tested, about 15% had one in any assay. The source made the active and inactive calls. No stated cut-off is given here; in the data, active means growth inhibition above about 70%; inactive means the rest.
Response enum: active, inactive

Outcome? Cc1cn(C2OC(CO)C(O)C(O)C2N)c(=O)[nH]c1=O (stereo unspecified)
active

Could you check what this test reported for NC(=O)C1CCN(N=Nc2c(-c3ccccc3)n[nH]c2-c2ccccc2)CC1 ?
active

Please indicate how the test categorized COc1ccccc1C1C2=C(COC2=O)OC(C)(C)Oc2cc3c(cc21)OCO3 (stereo unspecified) .
active

What call does the record list for [Br][Pt+2][Br].[NH-]c1cccc(I)c1.[NH-]c1cccc(I)c1 ?
inactive

Hey, what did the test say about COc1ccc(CSC(=S)Nc2ccc(Cl)c(C(F)(F)F)c2)cc1 ?
active

I would be grateful if you could indicate the recorded call for O=C(C1=Cc2ccccc2OC1)N1CCN(c2cccc(Cl)c2)CC1 .
active

* * *

Experiment: NCI Yeast Anticancer Drug Screen. Data for the sgs1 mgt1 strain (AID 161);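 further: 0% = growth of cultures given vehicle only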
Conditions: S. cerevisiae sgs1 mgt1 strain, at 50.0 µM, hits give high values
This is part of a sample that, as a whole, favours compounds with a hit. Of some 79,000 tested, about 15% had one in any assay.
Threshold check on growth inhibition: at or above 50% gives criterion met, strictly below gives criterion not met.

Item CN(C)C(=O)N(C)/N=C/c1ccc([N+](=O)[O-])o1 with growth inhibition of 50% or above?
criterion met

Quick check: does OC(C/C=N/Nc1ccccc1)(C(F)(F)Cl)C(F)(F)Cl have growth inhibition greater than or equal to 50%?
criterion met

Evaluate Clc1ccc(CN2COc3c(ccc4cccnc34)C2)c(Cl)c1 : growth inhibition at minimum 50%?
criterion met

Item N#Cc1ccc(Cl)cc1[N+](=O)[O-] with growth inhibition of 50% or above?
criterion met

Evaluate O=C(C[n+]1ccccc1Cl)c1ccc(F)cc1 : growth inhibition at minimum 50%?
criterion not met

growth inhibition >= 50% for CCC(CC)COC(=O)c1cccnc1 ?
criterion met

# check: growth inhibition of COc1ccc(CC2=CC(=O)C(=O)C=C2C)cc1 is greater than or equal to 50%
criterion not met

hey, is growth inhibition for this one >= 50%? CCCCCCCCCCCC(O)=C1C(=O)CC(O)CC1=O (stereo not drawn)
criterion met

Determine whether this molecule has growth inhibition no lower than 50%: CC1=C(C)C(=O)C(CNCc2ccccc2)=[C-]C1=O.[Co].[c-]1[c-][c-][cH-][c-]1
criterion not met

Given the entry COC(=O)N/N=C(\C)C(CN1CCOCC1)C(c1ccccc1)c1cc2ccccc2oc1=O (stereo not drawn) , answer whether its growth inhibition meets or surpasses 50%.
criterion not met

Exam item: decide whether the reported growth inhibition for O=c1c2ccccc2ncn1Cc1ccccc1[N+](=O)[O-] is at least 50%.
criterion not met

Answer whether growth inhibition of CN(C(=O)c1ccc(Cl)cc1)C(=S)N1CCN(c2ccccc2)CC1 is greater than or equal to 50%.
criterion met

Has O=C(N(c1ccc(Cl)cc1)c1ccc(Cl)cc1)C(Cl)(Cl)Cl a recorded growth inhibition greater than or equal to 50%?
criterion not met

Assess whether reported growth inhibition for CCCCCCCCCCCCCC(N)c1ccc(C)cc1 (stereo not drawn) sits at 50% or higher.
criterion met

In plain terms: is recorded growth inhibition at least 50% for c1ccc([P+](CCCCCC[P+](c2ccccc2)(c2ccccc2)c2ccccc2)(c2ccccc2)c2ccccc2)cc1 ?
criterion met

Reported growth inhibition at or above 50%? Cc1ccccc1C(=O)c1ccc(O)c2ccccc12
criterion met

Determine whether this molecule has growth inhibition no lower than 50%: O=C1C=CC(=O)c2ccc(=O)ccc21
criterion not met

Does O=C1c2cccc3cc([N+](=O)[O-])cc(c23)C(=O)N1O have a reported growth inhibition of at least 50%?
criterion met

Entry CN1C(=O)C(C2C(=O)N(C)C(=O)N(C)C2=O)C(=O)N(C)C1=O : is its growth inhibition no less than 50%?
criterion not met

Dear colleague, could you confirm whether O=[N+]([O-])c1cccc(/C=N/Nc2ccc3ccccc3n2)c1O has growth inhibition at or above 50%?
criterion met

Can Oc1ccc(N=Nc2ccccc2)c(O)c1.Oc1ccc(N=Nc2ccccc2)c(O)c1.[Cu] be said to have growth inhibition at or above 50%?
criterion met

Please tell me: is the molecule O=C/C=C/c1cc([N+](=O)[O-])ccc1Cl at or over 50% in terms of growth inhibition?
criterion met

Exam item: decide whether the reported growth inhibition for COc1ccc(C(=O)C(c2ccc(OC)cc2)C2(O)C(=O)Nc3c(C)cc(Cl)cc32)cc1 (stereo not drawn) is at least 50%.
criterion met

* * *

Experiment: NCI Yeast Anticancer Drug Screen. Data for the rad50 strain (AID 155);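 further: 0% = growth of vehicle-only cultures of the same strain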
Details: S. cerevisiae rad50 strain growth inhibition; at 50.0 µM (retest, dose inferred, filed as 5.0)
Description: Growth inhibition of yeast strains with defined genetic alterations is measured as a screen for potential anti-cancer activity. Selected strains with alterations in DNA damage repair or cell cycle control were exposed to compounds and growth inhibition was measured relative to vehicle treated controls. The strain used in this assay is rad50
Compounds without any hit were thinned out: in the full panel of roughly 79,000, 15% have a hit. Active and inactive are the calls of the source. Cut-off read from the data, not from the text of the source: active = growth inhibition above about 70%; inactive = the rest.
Pick one: active, inactive

State the result this test recorded for c1cc[c]([Sn]([S]c2cccc3cccnc23)([c]2ccccc2)[c]2ccccc2)cc1 .
active

Write down the call the test reported for this molecule. Item: Cc1ccc(S(=O)(=O)Nn2c(S)c(C#N)c(-c3ccc([N+](=O)[O-])cc3)c(C#N)c2=O)cc1
inactive

Query: recorded result category for CCOC(=O)C(C#N)NC(C)=O (stereo unspecified) in this test
inactive

So what was the verdict on CCCCCCC(=O)OCCN(CCOC(=O)CCCCCC)C(=O)C(C)OC(=O)CCCCCC (stereo unspecified) in this test?
inactive

Look up the recorded call for O=C(O)COc1ccccc1C(=O)O in this test.
inactive

Record lookup: outcome of this test for CC(=O)Oc1c2ccccc2c(C)c2c1ccc1ccccc12 ?
active

* * *

Test: NCI Yeast Anticancer Drug Screen. Data for the bub3 strain (AID 167)
Settings: S. cerevisiae bub3 mutant strain, at 50.0 µM, hits give high values
This is part of a sample that, as a whole, favours compounds with a hit. Of some 79,000 tested, about 15% had one in any assay.
For each of the molecules below, state its growth inhibition.
Write the value in % as a bare number.

May I ask what growth inhibition has been recorded for CC(C)(C)OC(=O)N(CCCCNC(=O)OCc1ccccc1)CCCNC(=O)OCc1ccccc1 ?
-13.4

# input molecule: COc1ccc(C2=C(Cl)C(=O)N(c3ccccc3Cl)C(=O)C2(Cl)Cl)cc1 ; wanted: its growth inhibition
97.1

Look up growth inhibition for this molecule: Cc1cc(SCc2ccccc2)cc(C)[o+]1
61.5

Requested field: growth inhibition. Item: N#Cc1ccc(OC(=O)Nc2c(Cl)cccc2Cl)cc1
84.3

Look at this molecule and give its reported growth inhibition. O=C(O)C(=O)Cc1ccc(O)cc1
70.7

Given O=C1N(Cc2ccccc2)CC1(c1ccccc1)C1CCCCC1O (stereo not drawn) , state its recorded growth inhibition.
65.6

Any idea what growth inhibition was measured for CC1(C)N([O-])[N+](=O)C1(Br)c1ccccc1 (stereo not drawn) ?
87.5

Name the reported growth inhibition value associated with the molecule CC(=O)c1c(O)c2ccc(Cl)cc2[nH]c1=O
38.2

growth inhibition for O=c1[nH]n(CCc2ccccn2)c(=O)c(Cl)c1Cl ?
-11.2

Value lookup for growth inhibition; key = Cc1ccc(NC(=O)Oc2ccc(C(C)(C)C)cc2Br)cc1NC(=O)Oc1ccc(C(C)(C)C)cc1Br
28.4

Look up growth inhibition for this molecule: O=C(O)c1cccc(N=Nc2c(S(=O)(=O)O)ccc3c2C(=O)c2ccccc2C3=O)c1O
-15.2

Returns the measured growth inhibition for the input molecule. Input: C/C=C/C=C1\C=Cc2c(C(=O)OC)coc(=O)c21
94

What measured growth inhibition goes with O=C(O)c1cc(C(=O)O)c(C(=O)O)cc1C(=O)O.[NH-]C1CCCC1.[NH-]C1CCCC1.[NH-]C1CCCC1.[NH-]C1CCCC1.[Pt+2].[Pt+2] ?
99

Query (molecule): CCCCCCCCCCCCCCCc1nc(SCC(=O)O)n[nH]1 ; field requested: growth inhibition
37.1

Entry O=[N+]([O-])c1ccc(NS(=O)(=O)c2ccccc2)c(NS(=O)(=O)c2ccccc2)c1 has what growth inhibition?
80.1

Looking for the measured growth inhibition of OCC(O)C(O)C(/C=N/Nc1ccccc1)=N/Nc1ccccc1 (stereo not drawn) , can you help?
-5.35

Recorded growth inhibition of CCCCCCCCN/N=C(/C)CCCCCO , please.
15.9

Request the reported growth inhibition associated with CCOCCNCc1ccc(Cl)c(Cl)c1
-5.85

Form field: reported growth inhibition of C#CC[N+](CC)(CC)CCNC(=O)CCCCCCCCCCCCCCC
99.6

Please give the measured growth inhibition for this molecule: O=C(CC[P+](c1ccccc1)(c1ccccc1)c1ccccc1)c1ccccc1
94.8

Using the record for N=Cc1cc([N+](=O)[O-])ccc1O , report its growth inhibition.
71.3

Quick check: growth inhibition of CN(CCC1CCCCC1)CCC1CCCCC1 ?
96.5

For the molecule shown here, NC1=NC2=C(CCCC2)C(c2cccs2)S1 (stereo not drawn) , give the reported growth inhibition.
61.7
